Measured Ki by item
# tested-target: GST-MCL-1 (Homo sapiens, UniProt Q07820)
# Sequence (Q07820 whole entry): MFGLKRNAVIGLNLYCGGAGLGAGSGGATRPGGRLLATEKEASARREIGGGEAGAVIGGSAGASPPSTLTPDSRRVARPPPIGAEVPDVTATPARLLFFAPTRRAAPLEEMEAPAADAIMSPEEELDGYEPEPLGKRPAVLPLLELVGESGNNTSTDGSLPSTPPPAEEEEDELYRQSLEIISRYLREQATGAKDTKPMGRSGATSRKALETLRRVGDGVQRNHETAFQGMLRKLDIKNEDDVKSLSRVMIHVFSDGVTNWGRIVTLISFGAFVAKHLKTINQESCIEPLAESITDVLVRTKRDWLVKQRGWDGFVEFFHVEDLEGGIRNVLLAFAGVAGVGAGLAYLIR
# measurement-notes: TR-FRET MCL-1 binding assay (competition with probe F-Bak)
# stated-conditions: without HS; read-out: MCL-1 Binding Ki
// note: answer is a bare numeric in nM

Case COCCOCCOCCOc1cccc(COc2ccc3cc2C[C@H](C(=O)O)Oc2ncnc4sc(-c5ccc(F)cc5)c(c24)-c2c(C)c(Cl)c(c(Cl)c2C)O[C@H](CN2CCN(C)CC2)CO3)c1 , GST-MCL-1 (Homo sapiens, UniProt Q07820), Ki recorded as 1.88

Case COCCOCCN(CCOCCOC)c1nccc(COc2ccc3cc2C[C@H](C(=O)O)Oc2ncnc4sc(-c5ccc(F)cc5)c(c24)-c2c(C)c(Cl)c(c(Cl)c2C)O[C@H](CN2CCN(C)CC2)CO3)n1 , GST-MCL-1 (Homo sapiens, UniProt Q07820), Ki recorded as 1.08

Case COCCOCCOCCOCCOCCOCC1(c2nccc(COc3ccc4cc3C[C@H](C(=O)O)Oc3ncnc5sc(-c6ccc(F)cc6)c(c35)-c3c(C)c(Cl)c(c(Cl)c3C)O[C@H](CN3CCN(C)CC3)CO4)n2)CCCCC1 , GST-MCL-1 (Homo sapiens, UniProt Q07820), Ki recorded as 0.033

Here's the next entry for you.
Case COCCOCCOCCOCCOCCOCCOCCOCCOCCOCCOCCOCCOCC1(c2nccc(COc3ccc4cc3C[C@H](C(=O)O)Oc3ncnc5sc(-c6ccc(F)cc6)c(c35)-c3c(C)c(Cl)c(c(Cl)c3C)O[C@H](CN3CCN(C)CC3)CO4)n2)CCC1 , GST-MCL-1 (Homo sapiens, UniProt Q07820), Ki recorded as 0.124

###

# tested-target: GST-MCL-1 (Homo sapiens, UniProt Q07820)
# measurement-notes: TR-FRET MCL-1 binding assay (competition with probe F-Bak)
# stated-conditions: without HS; read-out: MCL-1 Binding Ki
measurement-type: pKi
Scale: negative log10 of molar concentration, which is what pKi denotes.

Just so you know, measured pKi for COCCOCCOCCOCCOCCOCC1(c2nccc(COc3ccc4cc3C[C@H](C(=O)O)Oc3ncnc5sc(-c6ccc(F)cc6)c(c35)-c3c(C)c(Cl)c(c(Cl)c3C)O[C@H](CN3CCN(C)CC3)CO4)n2)CCCC1 came out at 9.80

Just so you know, measured pKi for Cc1c(Cl)c2c(Cl)c(C)c1-c1c(-c3ccc(F)cc3)sc3ncnc(c13)O[C@@H](C(=O)O)Cc1cc(ccc1OCc1ccnc(C(CO)CO)n1)OC[C@@H](CN1CCN(C)CC1)O2 came out at 9.49

Just so you know, measured pKi for Cc1c(Cl)c2c(Cl)c(C)c1-c1c(-c3ccc(F)cc3)sc3ncnc(c13)O[C@@H](C(=O)O)Cc1cc(ccc1OCc1ccnc(-c3ccc(S(=O)(=O)N4CCOCC4)cc3)n1)OC[C@@H](CN1CCN(C)CC1)O2 came out at 10.09

Just so you know, measured pKi for Cc1c(Cl)c2c(Cl)c(C)c1-c1c(-c3ccc(F)cc3)sc3ncnc(c13)O[C@@H](C(=O)O)Cc1cc(ccc1OCc1ccnc(C3(COCCOC[C@H]4COCCO4)CCC3)n1)OC[C@@H](CN1CCN(C)CC1)O2 came out at 10.05

Here's the next entry for you.
Just so you know, measured pKi for Cc1c2ccc(c1Cl)O[C@H](CN1CCN(C)CC1)COc1ccc(OCc3ccnc([C@H]4CCCN4C(=O)CCP(C)(C)=O)n3)c(c1)C[C@H](C(=O)O)Oc1ncnc3sc(-c4ccc(F)cc4)c-2c13 came out at 7.42
